Cited source for all entries: patent US9120749B2

Tested on: HT-1197 cells
Test: Cell-based assay: anti-proliferative activity, Cell Counting Kit-8, 72 hours (HT-1197, negative control without MELK expression)
Settings: Homo sapiens, HT1197, 72 h, HT1197 cells (negative control), 72 hours
Structures can show the parent of a compound that is named as a salt.
property measured: IC50 (µM)
Record the value in µM, omitting the unit from your answer.

Consider the following illustrative entries.
O=C(c1cnc2ccc(-c3cc(Cl)c(O)c(Cl)c3)cc2c1N[C@H]1CC[C@H](CN2CCC(O)C2)CC1)C1CC1 (stereo partly drawn) ... 0.76
COc1cc(-c2ccc3ncc(C(=O)C4CC4)c(N[C@H]4CC[C@H](CN5CCC(OC)C5)CC4)c3c2)cc(Cl)c1O (stereo partly drawn) ... 2.8

Record summary for `CCCC(=O)c1cnc2ccc(-c3cc(F)c(O)c(Cl)c3)cc2c1N[C@H]1CC[C@H](N)CC1` : reported IC50 = 2.9

Record summary for CC(=O)c1cnc2ccc(-c3cc(Cl)c(O)c(Cl)c3)cc2c1N[C@H]1CC[C@H](C(=O)N2CCN(C)CC2)CC1 [Example 898, hydrochloride] : reported IC50 = 3

Record summary for `N[C@H]1CC[C@H](Nc2c(C(=O)C3CC3)cnc3c(F)cc(-c4cc(Cl)c(O)c(Cl)c4)cc23)CC1` : reported IC50 = 10

Record summary for CS(=O)(=O)c1cnc2ccc(-c3cc(F)c(O)c(Cl)c3)cc2c1N[C@H]1CC[C@H](CN2CCCC2)CC1 [Example 891, hydrochloride] : reported IC50 = 2.4

* * *

Test system: T47D cells
Assay: Cell-based assay: anti-proliferative activity, Cell Counting Kit-8, 72 hours (T47D)
Conditions: Homo sapiens, T47D, 72 h
Structures can show the parent of a compound that is named as a salt.
Listing of recorded IC50 by entry.
Record the value in µM, omitting the unit from your answer.

Consider the following illustrative entries.
O=C(c1cnc2ccc(-c3cc(Cl)c(O)c(Cl)c3)cc2c1Nc1cnc(N2CCNCC2)nc1)C1CC1 ... 0.052
COc1cc(-c2ccc3ncc(C(=O)C4CC4)c(N[C@H]4CC[C@H](CN5CC[C@@H](F)C5)CC4)c3c2)cc(Cl)c1O ... 0.62
CN[C@H]1CC[C@H](Nc2c(C(C)=O)cnc3ccc(-c4cc(Cl)c(O)c(Cl)c4)cc23)CC1 ... 0.094
CC(=O)c1cnc2ccc(-c3cc(F)c(O)c(Cl)c3)cc2c1Nc1ccc(CCN(C)C)cc1 ... 0.12
COc1cc(-c2ccc3ncc(C(=O)C4CC4)c(Nc4ccc(N5CCCC(N)C5)nc4)c3c2)cc(Cl)c1O (centres unmarked) ... 0.068

Record summary for `CCCC(=O)c1cnc2ccc(-c3cc(F)c(O)c(Cl)c3)cc2c1Nc1ccc(CN(C)C)cc1` : reported IC50 = 0.11

Record summary for CC(=O)c1cnc2ccc(-c3cc(F)c(O)c(Cl)c3)cc2c1N[C@H]1CCC[C@H](CCN(C)C)C1 [Example 862, hydrochloride] : reported IC50 = 0.26

Record summary for `CN(C)Cc1ccc(Nc2c(C(=O)C3CC3)cnc3cc(F)c(-c4cc(Cl)c(O)c(Cl)c4)cc23)cc1` : reported IC50 = 0.41

Record summary for C[S+]([O-])c1cnc2ccc(-c3ccc(O)c(Cl)c3)cc2c1N[C@H]1CC[C@H](N)CC1 (some centres unmarked) : reported IC50 = 2.7

Record summary for O=C(c1cnc2ccc(-c3cc(F)c(O)c(Cl)c3)cc2c1Nc1ccc(N2CCC(O)C2)nc1)C1CC1 (centres unmarked) : reported IC50 = 0.3

Record summary for `O=C(c1cnc2ccc(-c3cc(F)c(O)c(Cl)c3)cc2c1Nc1ccc(N2CCNCC2)cn1)C1CC1` : reported IC50 = 0.48

Record summary for CC(=O)c1cnc2ccc(-c3ccc(O)cc3)cc2c1N[C@H]1CC[C@H](CN(C)C)CC1 [Example 935, dihydrochloride] : reported IC50 = 1.6

Record summary for `CN1CCC(n2cc(Nc3c(C(=O)C4CC4)cnc4ccc(-c5cc(F)c(O)c(Cl)c5)cc34)cn2)CC1` : reported IC50 = 0.24

Record summary for COc1cc(-c2ccc3ncc(C(=O)C4CC4)c(NC4CCC(N5CC[C@@H](F)C5)CC4)c3c2)cc(Cl)c1O (some centres unmarked) : reported IC50 = 0.45
